Target: C1b domain of human PKD1 (PKCμ) (Homo sapiens, UniProt Q15139)
Construct: Genes encoding C1b domains of human PKCα, δ, ε, θ, and PKD1 (PKCμ) were synthesized; made in house; host or cells: E. coli BL21(DE3)
Sequence (Q15139 270-320 limits assumed): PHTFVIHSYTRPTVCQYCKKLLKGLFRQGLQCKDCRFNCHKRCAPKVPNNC
Assay: biochemical
Format: binding
Settings: C1b domain of human PKD1 (PKCμ), 3H-PDBu competition; read-out: Ki PKD1/PKCμ
Would you kindly list Ki for each of these compounds?

CC1=C[C@H]2[C@@]3(O)[C@H](C)C[C@]4(OC(=O)[C@@H](N)Cc5ccccc5)[C@H]([C@@H]3C=C(CO)C[C@]2(O)C1=O)C4(C)C :: 1 to 30 nM

Give Ki for each listed item.
1. CC1=C[C@H]2[C@@]3(O)[C@H](C)C[C@]4(OC(=O)Cc5ccccc5)[C@H]([C@@H]3C=C(CO)C[C@]2(O)C1=O)C4(C)C
2. CCCCCCCCCCCCCC(=O)O[C@@H]1[C@@H](C)[C@@]2(O)[C@@H](C=C(CO)C[C@]3(O)C(=O)C(C)=C[C@@H]23)[C@@H]2C(C)(C)[C@]12OC(C)=O [Compound K103, 12-O-Tetradecanoylphorbol-13-acetate, reference compound]

< 5 nM
< 5 nM

Ref: patent US20220411362A1
